Source of measurements: patent US20230141988A1

assay name: in vivo
study conditions: male, C57BL/6J, mouse, po, 25 mg/kg, Brain concentration, Mean
property measured: concentration at 2 h (ng/g)
Give the quantity in ng/g, number only.

Tell me its concentration at 2 h given CN1CCc2cccc3c2[C@@H]1Cc1ccc(O)c(O)c1-3 as the entry.
16.8

###

assay name: in vivo
study conditions: male, C57BL/6J, mouse, brain concentration, Conc. (ng/g)
property measured: concentration at 0.5 h (ng/g)
Give the quantity in ng/g, number only.

Tell me its concentration at 0.5 h given CN1CCc2cccc3c2[C@H]1Cc1ccc(O)c(O)c1-3 as the entry.
38

###

assay name: in vivo
study conditions: male, SD, rat, 0.88 mg/kg
property measured: concentration at […] (ng/mL)
Give the quantity in ng/mL, number only.

Tell me its concentration at […] given CN1CCc2cccc3c2[C@@H]1Cc1ccc(O)c(O)c1-3 as the entry.
119
